system: SK-MEL-5; experiment: Cytotoxicity against human SK-MEL-5 cells assessed as growth inhibition at 10 uM after 48 hrs by SRB assay; format: functional; conditions: SK-MEL-5, 48 h, read-out: GI
Listed here: items and their measured inhibition of growth at 10 µM.

STRUCTURE AS SMILES | UNIT ABBREVIATION | inhibition of growth at 10 µM
O=C(Nc1ccccc1)Nc1ccc(OC2=NS(=O)(=O)c3ccccc32)cc1 | % | 17
O=C(Nc1ccc(Cl)cc1)Nc1ccc2c(c1)C(Nc1ccc(Cl)cc1Cl)=NS2(=O)=O | % | 51
O=C(Nc1ccc(NC2=NS(=O)(=O)c3ccccc32)cc1)Nc1cccc(Br)c1 | % | 45
O=C(Nc1ccccc1)Nc1ccc(NC2=NS(=O)(=O)c3ccccc32)cc1 | % | 6
Cc1ccc(NC2=NS(=O)(=O)c3ccc(NC(=O)CCC(=O)O)cc32)cc1 | % | 5
O=C(Nc1ccc(OC2=NS(=O)(=O)c3ccccc32)cc1)Nc1ccccc1Cl | % | 9
COc1ccc(NC(=O)Nc2ccc(NC3=NS(=O)(=O)c4ccccc43)cc2)cc1 | % | 14
